molecular target: PHGDH (Homo sapiens (Human)); experiment: 3-Phosphoglycerate Dehydrogenase (PHGDH) Fluorescence Intensity Assay, run at two NAD/3-PG ratios: PHGDH_HIGH_NAD/3-PG (250 μM NAD/500 μM 3-PG) and PHGDH_500_NAD/3-PG (500 μM NAD/500 μM 3-PG); type: biochemical; conditions: 250 μM NAD/500 μM 3-PG; read-out: IC50 (PHGDH_HIGH_NAD/3-PG)
Sequence (O43175 2-533 limits assumed): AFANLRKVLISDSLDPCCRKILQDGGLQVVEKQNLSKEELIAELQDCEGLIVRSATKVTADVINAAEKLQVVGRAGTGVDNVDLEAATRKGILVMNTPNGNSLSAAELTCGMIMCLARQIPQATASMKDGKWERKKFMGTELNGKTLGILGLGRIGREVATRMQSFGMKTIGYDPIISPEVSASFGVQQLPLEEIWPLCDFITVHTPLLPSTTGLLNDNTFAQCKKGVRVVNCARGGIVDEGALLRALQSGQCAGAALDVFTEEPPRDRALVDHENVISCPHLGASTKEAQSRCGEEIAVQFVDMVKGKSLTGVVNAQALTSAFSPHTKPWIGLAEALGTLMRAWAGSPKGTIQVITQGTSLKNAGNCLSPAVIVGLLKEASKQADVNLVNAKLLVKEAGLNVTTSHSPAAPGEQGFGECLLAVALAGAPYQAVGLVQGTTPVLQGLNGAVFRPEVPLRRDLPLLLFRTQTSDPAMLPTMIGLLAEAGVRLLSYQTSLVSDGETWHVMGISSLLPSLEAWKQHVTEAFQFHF
IC50 values, listed per item
Numbers only here, please. The scale is µM.

Query: Please report the recorded IC50 for Cc1cc(Cl)c2cc(C(=O)N[C@H](C)c3ccc(S(=O)(=O)CC(=O)OCC(C)C)cc3)n(C)c2c1 [Example 09-013] .
Result: 19.3

Query: Please report the recorded IC50 for Cc1cc2c(cc(C(=O)N[C@H](C)c3ccc(S(=O)(=O)CC(=O)O)cc3)n2C)c(Cl)c1Cl [Example 03-005] .
Result: 0.004

Query: Please report the recorded IC50 for Cc1cc(Cl)c2cc(C(=O)N[C@H](C)c3ccc(S(=O)(=O)CC(=O)O)cc3)n(C)c2c1 [Example 03-009] .
Result: 0.008

Query: Please report the recorded IC50 for COC(=O)C1(S(=O)(=O)c2ccc([C@@H](C)NC(=O)c3cc4c(Cl)cc(C)cc4n3C)cc2)CCCC1 [Example 05-008] .
Result: 18.3

Query: Please report the recorded IC50 for COC(=O)CS(=O)(=O)c1ccc([C@@H](C)NC(=O)c2cc3cc(Cl)c(-c4cnn(CCN5CCOCC5)c4)cc3n2C)cc1 [Example 01-027] .
Result: 0.248

Query: Please report the recorded IC50 for COC(=O)CS(=O)(=O)c1ccc([C@@H](C)NC(=O)c2cc3c4ccccc4c(C)cc3n2C)cc1 [Example 01-010] .
Result: 0.943

***
Query: Please report the recorded IC50 for Cc1cc(Cl)c2cc(C(=O)N[C@H](C)c3ccc(S(=O)(=O)C4(C(=O)O)CCOCC4)cc3)n(C)c2c1 [Example 07-002] .
Result: 0.007

Query: Please report the recorded IC50 for CN1CCN(c2cc(Cl)c3cc(C(=O)N[C@H](CO)c4ccc(S(=O)(=O)CC(=O)O)cc4)n(C)c3c2)CC1 [Example 03-017] .
Result: 0.04

Query: Please report the recorded IC50 for CC(C)OC(=O)CS(=O)(=O)c1ccc([C@@H](C)NC(=O)c2cc3c(Cl)cc(-c4cnn(C)c4)cc3n2C)cc1 [Example 01-011] .
Result: 1.93

Query: Please report the recorded IC50 for COCCOC(=O)C(C)(C)S(=O)(=O)c1ccc([C@@H](C)NC(=O)c2cc3c(Cl)c(Cl)c(C)nc3n2C)cc1 [Example 05-018] .
Result: 5.33

Query: Please report the recorded IC50 for Cc1cc(Cl)c2cc(C(=O)N[C@H](C)c3ccc(S(=O)(=O)CC(=O)OCC(CO)CO)cc3)n(C)c2c1 [Example 09-027] .
Result: 0.16

Query: Please report the recorded IC50 for Cc1cc(Cl)c2cc(C(=O)N[C@H](C)c3ccc(S(=O)(=O)CC(=O)OCC(CO)COC(=O)C(C)(C)C)cc3)n(C)c2c1 (some centres unmarked) [Example 09-026] .
Result: 1.41

Query: Please report the recorded IC50 for CC(C)OC(=O)C(C)S(=O)(=O)c1ccc([C@@H](CO)NC(=O)c2cc(-c3ccc(F)cc3)nn2C)cc1 (some centres unmarked) [Example 06-007] .
Result: 29.6

Query: Please report the recorded IC50 for C[C@@H](NC(=O)c1cc(-c2ccc(F)cc2)nn1C)c1ccc(S(=O)(=O)CC(=O)OCCO)cc1 [Example 10-005] .
Result: 0.766
